Listing of recorded pIC50 by entry.
- system tested: Phosphatidylinositol 4,5-bisphosphate 3-kinase catalytic subunit alpha isoform (Homo sapiens)
- Sequence (P42336 whole entry, canonical isoform): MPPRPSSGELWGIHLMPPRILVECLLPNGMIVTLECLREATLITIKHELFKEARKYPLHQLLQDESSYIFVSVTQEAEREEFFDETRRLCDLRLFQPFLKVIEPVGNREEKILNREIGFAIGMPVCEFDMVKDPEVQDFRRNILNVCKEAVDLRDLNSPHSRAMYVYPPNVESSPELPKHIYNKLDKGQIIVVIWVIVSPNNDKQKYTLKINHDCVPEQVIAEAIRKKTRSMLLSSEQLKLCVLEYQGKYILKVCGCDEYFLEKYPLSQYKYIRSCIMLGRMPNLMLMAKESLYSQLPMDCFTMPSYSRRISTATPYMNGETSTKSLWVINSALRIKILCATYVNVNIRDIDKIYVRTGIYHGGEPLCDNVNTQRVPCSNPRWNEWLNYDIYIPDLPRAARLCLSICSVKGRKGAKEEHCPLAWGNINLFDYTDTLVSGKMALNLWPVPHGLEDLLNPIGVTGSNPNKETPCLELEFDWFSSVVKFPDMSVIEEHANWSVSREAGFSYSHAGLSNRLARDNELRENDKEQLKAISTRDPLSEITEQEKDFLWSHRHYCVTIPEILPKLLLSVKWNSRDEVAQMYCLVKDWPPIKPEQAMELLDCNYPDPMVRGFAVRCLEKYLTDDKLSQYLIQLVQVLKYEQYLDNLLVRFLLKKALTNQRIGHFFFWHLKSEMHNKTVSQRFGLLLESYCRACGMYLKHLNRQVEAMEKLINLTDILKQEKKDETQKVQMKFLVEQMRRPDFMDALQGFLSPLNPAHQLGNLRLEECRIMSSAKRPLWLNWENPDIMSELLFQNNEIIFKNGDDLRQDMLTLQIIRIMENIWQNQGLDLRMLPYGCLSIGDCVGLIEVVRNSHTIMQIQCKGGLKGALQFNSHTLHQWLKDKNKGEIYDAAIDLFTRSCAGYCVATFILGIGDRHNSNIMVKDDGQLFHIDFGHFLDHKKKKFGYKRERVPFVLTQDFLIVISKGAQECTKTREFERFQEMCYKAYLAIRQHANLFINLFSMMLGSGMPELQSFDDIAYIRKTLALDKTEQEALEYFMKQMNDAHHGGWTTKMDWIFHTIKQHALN
- protocol notes: Inhibition of human PI3Kalpha after 15 mins
pIC50: −log10 of the molar value.
quantity: pIC50

{"compound": "CC1Cc2cc(F)ccc2N1C(=O)Cc1nc(N2CCOCC2)sc1C(=O)O (stereo not given)", "result modifier": "<", "endpoint value": 5.00}
{"compound": "CC1Cc2ccccc2N1C(=O)Cc1nc(N2CCOCC2)sc1C(=O)O (racemic)", "result modifier": "<", "endpoint value": 5.00}
{"compound": "NC(=O)c1sc(N2CCOCC2)nc1CC(=O)N1CCc2ccccc21", "result modifier": "=", "endpoint value": 5.39}
{"compound": "NC(=O)c1sc(N2CCOCC2)nc1CC(=O)N1CCc2c(Br)cccc21", "result modifier": "=", "endpoint value": 5.67}
{"compound": "NC(=O)c1sc(N2CCOCC2)nc1CC(=O)N1CCc2cc(Br)ccc21", "result modifier": "<", "endpoint value": 5.00}
{"compound": "NC(=O)c1sc(N2CCOCC2)nc1CC(=O)Nc1ccc(F)c(Cl)c1", "result modifier": "=", "endpoint value": 5.08}
{"compound": "NC(=O)c1sc(N2CCOCC2)nc1CC(=O)N1CCc2c(Cl)cccc21", "result modifier": "=", "endpoint value": 5.20}
{"compound": "O=C(O)c1sc(N2CCOCC2)nc1CC(=O)N1CCc2c(Br)cccc21", "result modifier": "=", "endpoint value": 5.95}
{"compound": "O=C(O)c1sc(N2CCOCC2)nc1CC(=O)N1CCc2cc(Br)ccc21", "result modifier": "<", "endpoint value": 5.00}
{"compound": "CC1Cc2c(Cl)cccc2N1C(=O)Cc1nc(N2CCOCC2)sc1C(=O)O (stereo not given)", "result modifier": "<", "endpoint value": 5.00}
{"compound": "O=C(O)c1sc(N2CCOCC2)nc1CC(=O)N1CCc2ccccc21", "result modifier": "<", "endpoint value": 5.00}
{"compound": "CC1Cc2c(Br)cccc2N1C(=O)Cc1nc(N2CCOCC2)sc1C(=O)O (single isomer, unassigned; enantiomer 2)", "result modifier": "=", "endpoint value": 5.51}
{"compound": "CC1Cc2c(Br)cccc2N1C(=O)Cc1nc(N2CCOCC2)sc1C(N)=O (single isomer, unassigned; (-))", "result modifier": "=", "endpoint value": 5.88}
{"compound": "NC(=O)c1sc(N2CCOCC2)nc1CC(=O)N1CCc2cc(Cl)ccc21", "result modifier": "<", "endpoint value": 5.00}
{"compound": "CC1Cc2cc(F)ccc2N1C(=O)Cc1nc(N2CCOCC2)sc1C(N)=O (stereo not given)", "result modifier": "<", "endpoint value": 5.00}
